experiment description: soluble on expression in E. coli; label from the status in PepcDB or PDB records
experimental readout: soluble on expression in E. coli

1) GSWDWNLITGEVCWSDELYHIFGRSPQESGATYDEFLSYVHPDDRDRVDNALKKGLNGESVAGNYRIILGDGEERIVRTEAEVVFDEK    not soluble
2) MICFRTAFILILGVVIGTTAKRHNVRRHVNGKWTDKHCEEPPSLKEDLATWMQISMSGQFDDTALEEWSTNGKEPEICEKSPKADGVTTIMERALCPWDSRVNYQESREPKLIAESVCLCRKSRGSTGAFCMPIVRKVPILRRVSCDRSTGLWNYVRSTELITVGCHSVLPRTQRAARLAHLSSSRIIV    not soluble
3) SHPNQNDKIVVGLDIGTTKICAIVGRKNEYGKLEILGIGKAVSEGVIRGMVTNINLTVTAIEKAIKEASDQSGIDIGVVNVGIAGQHIKSSVHHHGINRPGGDEEISVDDVNRLTADMYRTVMPFGN    not soluble
4) MSHPALTQLRALRYFDAIPALEPHLLDWLLLEDSMTKRFEQQGKRVSVTLIREAFVGQSEVEEASGLLPSESRYWLREILLCADGEPWLAGRTVVPESTLCGPEQVLQHLGKTPLGRYLFTSSTLTRDFIEIGRDATLWGRRSRLRLSGKPLLLTELFLPASPLY    not soluble

The reported measurements were obtained from the DeepSol protein solubility set.
